biological target: MRGPRX4 (Homo sapiens); assay: MRGPRX4 activation, Fluo-8 Ca2+ FLIPR assay in HEK293T cells stably expressing MRGPRX4; type: cell-based; conditions: second E3-8-1, 30000 nM, n = 2
Sequence (Q96LA9 whole entry): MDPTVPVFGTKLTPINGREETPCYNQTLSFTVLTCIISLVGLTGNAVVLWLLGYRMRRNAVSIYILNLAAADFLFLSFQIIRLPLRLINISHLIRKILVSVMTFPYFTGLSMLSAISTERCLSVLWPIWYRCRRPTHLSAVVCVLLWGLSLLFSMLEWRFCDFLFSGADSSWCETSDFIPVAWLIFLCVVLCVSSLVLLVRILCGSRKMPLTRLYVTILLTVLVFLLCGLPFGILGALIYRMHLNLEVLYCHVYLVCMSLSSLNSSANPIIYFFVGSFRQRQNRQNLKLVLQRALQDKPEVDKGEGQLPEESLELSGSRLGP
For each entry below, report its Activation (%) value.
Give bare numbers, in %.

[[record]]
smiles_input = "CC[C@H]1[C@@H](O)[C@@H]2[C@H](CC[C@]3(C)[C@@H]([C@H](C)CNC(=O)NS(=O)(=O)c4ccc(N5CCCCC5)nc4)CC[C@@H]23)[C@@]2(C)CCCC[C@@H]12"
reported_endpoint = "Activation (%)"
result_value = 2.24


Please report Activation (%) for every entry that follows.
1. CC[C@H]1[C@@H](O)[C@@H]2[C@H](CC[C@]3(C)[C@@H]([C@H](C)COC(=O)NS(=O)(=O)c4ccc(C(C)(C)CF)cc4)CC[C@@H]23)[C@@]2(C)CCCC[C@@H]12
2. CC[C@H]1[C@@H](O)[C@@H]2[C@H](CC[C@]3(C)[C@@H]([C@H](C)COC(=O)NS(=O)(=O)c4ccc5c(c4)CCC(C)(C)O5)CC[C@@H]23)[C@@]2(C)CCCC[C@@H]12
3. CC[C@H]1[C@@H](O)[C@@H]2[C@H](CC[C@]3(C)[C@@H]([C@H](C)COC(=O)NS(=O)(=O)c4ccc(N5CCCCC5)nc4)CC[C@@H]23)[C@@]2(C)CCCC[C@@H]12

1. 2.24
2. 3.48
3. 0.08

* * *

Molecular target: UniProtKB Q96RI1
Sequence (Q96RI1 1-476 isoform Q96RI1-1): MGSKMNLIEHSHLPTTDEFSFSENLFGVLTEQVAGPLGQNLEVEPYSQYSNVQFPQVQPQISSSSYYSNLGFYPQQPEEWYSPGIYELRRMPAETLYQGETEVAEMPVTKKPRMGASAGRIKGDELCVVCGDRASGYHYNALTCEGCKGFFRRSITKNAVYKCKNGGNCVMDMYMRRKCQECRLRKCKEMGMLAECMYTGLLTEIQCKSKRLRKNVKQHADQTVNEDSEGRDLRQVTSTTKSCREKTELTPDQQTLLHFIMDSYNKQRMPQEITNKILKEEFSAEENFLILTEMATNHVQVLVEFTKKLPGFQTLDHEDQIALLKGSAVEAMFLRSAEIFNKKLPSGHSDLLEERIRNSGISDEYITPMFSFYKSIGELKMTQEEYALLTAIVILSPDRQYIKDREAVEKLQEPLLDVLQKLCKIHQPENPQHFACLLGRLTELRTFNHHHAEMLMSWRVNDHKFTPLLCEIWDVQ
Assay: Human FXR (NR1H4) agonist assessment, FXRE-NanoLuc reporter in HEK293T cells
Type: cell-based
Settings: FXR activation, HEK293T FXRE-NanoLuc reporter, 24 hr; read-out: EC50
Description: As those skilled in the art appreciate, various technologies are available for assessment of FXR activation in accordance with the present disclosure. […] In the following day, a 10 μL aliquot of cell culture medium was removed from each well and combined with 40 μL culture medium plus […] assay buffer (containing 20 mM of the luciferase substrate coelenterazine). After 5 min incubation, luminescence was measured using an EnVision plate reader (PerkinElmer). […]
pEC50: −log10 of the molar value.
For each entry below, report its pEC50 value.

[[record]]
compound = "CC[C@H]1[C@@H](O)[C@@H]2[C@H](CC[C@]3(C)[C@@H]([C@H](C)COC(=O)NS(=O)(=O)c4ccc(C(C)(C)CF)cc4)CC[C@@H]23)[C@@]2(C)CCCC[C@@H]12 [18-1]"
reported_endpoint = "pEC50"
result_value = "> 6.00"

[[record]]
compound = "C[C@H](CCC(=O)O)[C@H]1CC[C@H]2[C@@H]3CC[C@@H]4C[C@@H](O)CC[C@]4(C)[C@H]3C[C@@H](O)[C@]12C [RC-6]"
reported_endpoint = "pEC50"
result_value = "5.00 to 6.00"

[[record]]
compound = "[2H]C1([2H])CC[C@@]2(C)[C@@H](C1)[C@@H](CC)[C@@H](O)[C@@H]1[C@@H]2CC[C@]2(C)[C@@H]([C@H](C)CCNC(=O)NS(=O)(=O)c3ccc(C(C)(C)CF)cc3)CC[C@@H]12 [12-2]"
reported_endpoint = "pEC50"
result_value = "> 6.00"

[[record]]
compound = "CCCCS(=O)(=O)NC(=O)NCC[C@@H](C)[C@H]1CC[C@H]2[C@@H]3[C@H](O)[C@H](CC)[C@@H]4CCCC[C@]4(C)[C@H]3CC[C@]12C [5-14]"
reported_endpoint = "pEC50"
result_value = "> 6.00"


Please report pEC50 for every entry that follows.
1. C[C@H](CCC(C)(C)O)[C@H]1CC[C@H]2[C@@H]3CC[C@@H]4CCCC[C@]4(C)[C@H]3CC[C@]12C [2-3]
2. CC[C@H]1[C@@H](O)[C@@H]2[C@H](CC[C@]3(C)[C@@H]([C@H](C)CCN)CC[C@@H]23)[C@@]2(C)CCCC[C@@H]12 [6-1]
3. C[C@H](CCCO)[C@H]1CC[C@H]2[C@@H]3CC[C@@H]4CCCC[C@]4(C)[C@H]3CC[C@]12C [compound 77]
4. CC[C@H]1[C@@H](O)[C@@H]2[C@H](CC[C@]3(C)[C@@H]([C@H](C)CNC(=O)NS(=O)(=O)c4ccc(C(C)(C)CF)cc4)CC[C@@H]23)[C@@]2(C)CCCC[C@@H]12 [20-1]
5. C[C@H](CCC(=O)O)[C@H]1CC[C@H]2[C@@H]3CC[C@@H]4C[C@@H](O)CC[C@]4(C)[C@H]3C[C@H](O)[C@]12C [RC-5]
6. CC[C@H]1[C@@H](OC(=O)c2cccc(I)c2)[C@@H]2[C@H](CC[C@]3(C)[C@@H]([C@H](C)CCC(=O)OC)CC[C@@H]23)[C@@]2(C)CCCC[C@@H]12 [1-5]
7. CC[C@H]1[C@@H](OC(=O)c2cccc(I)c2)[C@@H]2[C@H](CC[C@]3(C)C([C@H](C)CCC(=O)OC)=CC(=O)[C@@H]23)[C@@]2(C)CCCC[C@@H]12 [3-2]

["5.00 to 6.00", "> 6.00", "5.00 to 6.00", "> 6.00", "5.00 to 6.00", "< 5.00", "< 5.00"]
